Assay notes: qHTS Assay for Enhancers of SMN2 Splice Variant Expression; note: nearly all actives have a fitted effect of over 55% in size
Run conditions: HEK293 SMN2-luciferase splicing reporter, luminescence, 30-36 h; series mostly up to 46.1 µM
From the text: NIH Chemical Genomics Center [NCGC] NIH Molecular Libraries Probe Production centers Network [MLPCN] MLPCN Grant: R03 MH084179-01 Assay Submitter (PI): Elliot Androphy NCGC Assay Overview: Spinal muscular atrophy (SMA) is caused by insufficient levels of the survival motor neuron protein SMN. The SMN locus on chromosome 5q13 contains two inverted copies of SMN called SMN1 and SMN2 which are 99% identical at the amino acid level. […]
About 5,900 (2.8%) of roughly 210,000 compounds were called active. About 5% were inconclusive and are not listed. Calls come from the whole dose curve; as a rule, active = well fitted activation curve with a large enough effect; inconclusive = small, poorly fitted or top-dose-only effect; inactive = no such curve, though single readings can be large or run the other way. The full list was thinned out, with actives kept by preference.
Labels: active, inactive

Cc1nc2ccc(S(=O)(=O)NC(C(=O)NCc3ccccc3Cl)C(C)C)cc2s1 (stereo unspecified)
inactive
COc1ccc(CCNC(=O)Cn2c(=O)n(-c3ccccc3)c(=O)c3c(C)c(C)sc32)cc1OC
inactive
Cc1ccc(NC(=O)CN2CCC(C(N)=O)CC2)cc1[N+](=O)[O-]
inactive
CN(c1ccccc1)S(=O)(=O)c1ccc(Cl)c(C(=O)NCCc2c[nH]c3ccccc23)c1
inactive
O=C(NCCc1c[nH]c2ccccc12)c1cc2ccccc2oc1=O
active
O=C(Nc1ccc2oc(-c3ccccc3F)nc2c1)c1ccco1
active
Cc1ccc(NC(=O)c2sccc2C)cc1[N+](=O)[O-]
active
O=C(Nc1cccc(-c2nc3ncccc3o2)c1)c1ccco1
inactive
Cc1ccsc1C(=O)N/N=C/c1ccc([N+](=O)[O-])cc1
active
Cc1nc2ccccc2cc1C(=O)N/N=C/c1ccc([N+](=O)[O-])cc1
inactive
COc1cc(OC)c(NC(=O)c2c3c(nn2C)-c2ccccc2SC3)cc1Cl
inactive
